# measurement.target: human TGR1 (NMUR2) (human)
# Sequence (chain, as listed by the source): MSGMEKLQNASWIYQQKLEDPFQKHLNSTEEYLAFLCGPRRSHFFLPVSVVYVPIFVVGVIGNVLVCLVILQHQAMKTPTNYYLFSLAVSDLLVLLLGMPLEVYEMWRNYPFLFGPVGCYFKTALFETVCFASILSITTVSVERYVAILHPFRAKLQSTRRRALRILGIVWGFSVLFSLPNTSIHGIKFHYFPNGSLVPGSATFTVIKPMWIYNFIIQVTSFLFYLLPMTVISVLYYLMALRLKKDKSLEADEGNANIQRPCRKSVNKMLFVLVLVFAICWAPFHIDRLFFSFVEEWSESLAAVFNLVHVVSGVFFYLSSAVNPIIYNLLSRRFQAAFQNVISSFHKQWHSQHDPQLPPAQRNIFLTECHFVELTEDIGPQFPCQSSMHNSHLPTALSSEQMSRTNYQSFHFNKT
# experiment.description: competition with 125I-NMU8, human TGR1/CHO membrane fraction, filter binding
Where no end group is shown, it is not given here. ACP = omega-aminocarboxylic acid linker; AB = not defined here; AD = not defined here
Quick reference for IC50 among some binders

Would you please look over these solved cases?
{(PEG20k)2}-YFLFRPRN-NH2 [(PEG20k)2-NMU-8] = 210 nM
{PEG 30 kDa-AD}-YFLFRPRN-NH2 (reading uncertain; also: PEG-aldehyde bound by reductive amination (NH linkage), printed as PEG30k(NH-AD)-NMU-8) [PEG30k(NH-AD)-NMU-8] = 32 nM
C(PEG 30 kDa)FFLFRPRN-NH2 [PEG30k(NHAc)-Cys-NMU-8] = 9.1 nM

Short answer for {(PEG20k)2-ACP}-YFLFRPRN-NH2 [(PEG20k)2(ACP)-NMU-8] : IC50 was 420 nM

Short answer for {PEG 30 kDa-AB}-YFLFRPRN-NH2 (reading uncertain; also: PEG attached by reductive amination (NH link) to linker, printed as Try-Phe-Leu-Phe-Arg-Pro-Arg-Asn-NH2) [PEG30k(NH-AB)-NMU-8] : IC50 was 2.5 nM
